Reference for the values: patent US20240246937A1

- TEST SYSTEM: recombinant IL4I1 (Homo sapiens (Human), UniProt Q96RQ9)
- Sequence (Q96RQ9 22-567): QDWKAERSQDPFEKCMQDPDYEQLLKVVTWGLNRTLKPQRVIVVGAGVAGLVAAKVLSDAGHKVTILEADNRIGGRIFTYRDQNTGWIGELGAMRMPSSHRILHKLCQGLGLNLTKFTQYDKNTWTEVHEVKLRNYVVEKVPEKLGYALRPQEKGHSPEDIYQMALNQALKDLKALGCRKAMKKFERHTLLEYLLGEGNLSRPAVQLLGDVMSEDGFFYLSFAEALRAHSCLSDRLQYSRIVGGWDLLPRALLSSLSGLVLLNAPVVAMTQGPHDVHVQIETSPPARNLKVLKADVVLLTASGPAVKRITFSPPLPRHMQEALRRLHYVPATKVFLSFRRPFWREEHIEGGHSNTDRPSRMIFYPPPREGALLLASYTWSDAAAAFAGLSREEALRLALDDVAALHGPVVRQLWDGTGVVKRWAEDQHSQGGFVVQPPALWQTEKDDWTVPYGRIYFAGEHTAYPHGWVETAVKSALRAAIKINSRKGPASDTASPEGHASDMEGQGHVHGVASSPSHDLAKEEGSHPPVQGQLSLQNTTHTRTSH
- ASSAY TEXT: IL4I1 Enzymatic Assay (Amplex Red/HRP coupled fluorescence detection of H2O2)
- Format: biochemical
- CONDITION SET: 240 min; recombinant IL4I1, four-hour pre-incubation with compound
MEASUREMENT NAME: EC50
Report the figure along with its unit, number first.

// worked examples, EC50 included
1. O=C1C(=O)N(C2CC(c3ccccc3)C2)CCN1Cc1ccc(-c2ccccc2)nn1 (stereo not drawn) :: 9 nM
2. O=C1C(=O)N([C@H]2C[C@H](c3ccccc3)C2)CCN1Cc1ccc(-c2ccccc2)nc1 [Example 266B] :: 4 nM
3. O=C1C(=O)N(C2CCC2)CCN1Cc1nnc(-c2cccc(F)c2)s1 :: 5 nM
4. O=c1c(=O)n([C@H]2C[C@H]3C[C@H]3C2)ccn1Cc1ccc(-n2ccnn2)nn1 :: 9 nM
5. O=C1C(=O)N(C2CCCC2)CCN1Cc1cnc(-c2ccccc2)c(F)c1 :: 14 nM
6. O=C1C(=O)N(C2CCCC2)CCN1Cc1ccc(-c2ccccc2)cc1F :: 8 nM
7. O=C1C(=O)N(C2CCCC2)CCN1Cc1nnc(N2CC[C@H](CF)C2)s1 :: 69 nM
8. O=c1c(=O)n(C2CCCC2)ccn1Cc1cc(-c2ccccc2F)on1 :: 5 nM

Kindly give each listed record's EC50.
1. CC1(n2ccn(Cc3cn(-c4cccnc4)nn3)c(=O)c2=O)CC1
2. O=C1C(=O)N(C2CCC2)CCN1Cc1ncc(-c2ccccc2)s1
3. O=C1C(=O)N(C2CCCC2)CCN1Cc1ccc2cc[nH]c(=O)c2c1
4. CC1(n2ccn(Cc3cc(-c4cccc(F)c4)no3)c(=O)c2=O)CCC1
5. O=C1C(=O)N(C2CCCC2)CCN1Cc1ccc(-c2cnco2)nn1

1: 29 nM; 2: 3 nM; 3: 35 nM; 4: 4 nM; 5: 43 nM

Kindly give each listed record's EC50.
1. O=C1C(=O)N(C2CCC2)CCN1Cc1nnc(-c2ccc(F)cc2)s1
2. O=C1C(=O)N(C2CCCC2)CCN1Cc1ncc(-c2cncs2)cc1F
3. N#CC1(n2ccn(Cc3cc(-c4ccccn4)no3)c(=O)c2=O)CC1

1: 9 nM; 2: 21 nM; 3: 68 nM

Kindly give each listed record's EC50.
1. O=C1C(=O)N(C2CCCC2)CCN1Cc1cc2ccccc2[nH]c1=O
2. O=C1C(=O)N2CCCCC2CN1Cc1nnc(-c2ccccc2)s1 (single isomer, unassigned) [Example 182]
3. CC1CN(Cc2ncc(-c3ccccc3)cn2)C(=O)C(=O)N1C1CCCC1 (single isomer, unassigned)
4. O=C1C(=O)N(C23CC(F)(C2)C3)CCN1Cc1cc(-c2ccccn2)no1
5. O=C1C(=O)N(c2ccccc2)CCN1Cc1ncc(-c2ccccc2)cn1

20 nM
14 nM
19 nM
82 nM
64 nM

----------
- TEST SYSTEM: recombinant IL4I1 (Homo sapiens (Human))
- ASSAY TEXT: IL4I1 Enzymatic Assay (Amplex Red/HRP coupled fluorescence detection of H2O2)
- Type: biochemical
- CONDITION SET: 240 min; recombinant IL4I1, four-hour pre-incubation with compound
- Description: Interleukin 4 inducible protein 1 (IL4I1) is an L-amino oxidase that catalyzes the oxidation of aromatic residues (Phe, Trp and Tyr): L-amino acid+H2O+O2→2-oxo acid+NH3+H2O2. […] In this assay, the hydrogen peroxide generated by IL4I1 is then detected through a coupled reaction with Amplex® Red (10-acetyl-3,7-dihydroxyphenoxazine) and horseradish peroxidase (HRP) to produce resorufin product that could be detected in the form of fluorescence signals. […]
MEASUREMENT NAME: EC50

// worked examples, EC50 included
1. O=C1C(=O)N(C2CCCC2)CCN1Cc1nnc(-c2ccccc2)s1 :: 7 nM
2. O=C1C(=O)N(C2CCCC2)CCN1Cc1ccc(-c2cn[nH]c2)nc1 :: 30 nM
3. O=C1C(=O)N(C2CCC2)CCN1Cc1ccc(-c2cnco2)nn1 :: 31 nM

Please report the recorded EC50 for O=C1C(=O)N(C2CCCC2)CCN1Cc1ccc(-c2cccc(F)c2)nn1 .
6 nM
